Experiment: Pharmacokinetics of metabolites in rat plasma after intravenous injection of I1s
Assay type: in vivo, SD male rats
Settings: male, Sprague-Dawley, rat, plasma, iv, 25 mg/kg, metabolite in rat plasma after I1s 25 mg/kg tail vein; rats 1-3
Experimental: 12 clean SD male rats, provided by Qinglongshan Animal Breeding Farm in Jiangning District, Nanjing. The production license number is SCXK (Jiangsu) 2017-0001. The body weight of the rats ranges from 180 to 220 g. […] The concentration of the original drugs and metabolites in the rat blood were determined by LC-MS/MS, and WinNonlin pharmacokinetics professional software and a statistical moment method were used for calculation to obtain the corresponding pharmacokinetic parameters.
reported property: half-life (min)
Numbers only, in min.

Quick check: half-life of CCCC[C@H](OC(C)=O)c1ccccc1C(=O)O [(S)-APB, (S)-2-(1-acetoxy-n-pentyl)benzoic acid] ?
163

----------
test: Pharmacokinetics of metabolites in rat plasma after intravenous injection of I1s; format: in vivo, SD male rats; conditions: male, Sprague-Dawley, rat, plasma, intravenous, 25 mg/kg, metabolite in rat plasma after I1s 25 mg/kg tail vein; rats 1-3
reported property: half-life

Quick check: half-life of CCCC[C@H](OC(C)=O)c1ccccc1C(=O)O [(S)-APB, (S)-2-(1-acetoxy-n-pentyl)benzoic acid] ?
~3 h

----------
test: Acute toxicity test, tail vein injection in mice; conditions: female, ICR, mouse, in vivo, iv, LD50 value, Bliss method
reported property: LD50 at 14 days (mg/kg)
Numbers only, in mg/kg.

Quick check: LD50 at 14 days of CCCC[C@H](OC(C)=O)c1ccccc1C(=O)O ?
1120

----------
assay: Concentration of metabolites in rat brain tissue after intravenous injection of I1s; format: in vivo; conditions: male, Sprague-Dawley, rat, brain, iv, 25 mg/kg, 0.5 h after intravenous injection of I1s; read-out: Concentration in brain tissue, Mean
reported property: concentration at 0.5 h

Quick check: concentration at 0.5 h of CCCC[C@H](O)c1ccccc1C(=O)O [M3, (S)-2-(1-hydroxy-n-pentyl)benzoic acid] ?
111 ng/g

----------
target: hERG potassium channel of CHO-hERG cells (Homo sapiens); assay: Effect on hERG potassium channel (automatic patch clamp)
Sequence (Q12809 whole entry): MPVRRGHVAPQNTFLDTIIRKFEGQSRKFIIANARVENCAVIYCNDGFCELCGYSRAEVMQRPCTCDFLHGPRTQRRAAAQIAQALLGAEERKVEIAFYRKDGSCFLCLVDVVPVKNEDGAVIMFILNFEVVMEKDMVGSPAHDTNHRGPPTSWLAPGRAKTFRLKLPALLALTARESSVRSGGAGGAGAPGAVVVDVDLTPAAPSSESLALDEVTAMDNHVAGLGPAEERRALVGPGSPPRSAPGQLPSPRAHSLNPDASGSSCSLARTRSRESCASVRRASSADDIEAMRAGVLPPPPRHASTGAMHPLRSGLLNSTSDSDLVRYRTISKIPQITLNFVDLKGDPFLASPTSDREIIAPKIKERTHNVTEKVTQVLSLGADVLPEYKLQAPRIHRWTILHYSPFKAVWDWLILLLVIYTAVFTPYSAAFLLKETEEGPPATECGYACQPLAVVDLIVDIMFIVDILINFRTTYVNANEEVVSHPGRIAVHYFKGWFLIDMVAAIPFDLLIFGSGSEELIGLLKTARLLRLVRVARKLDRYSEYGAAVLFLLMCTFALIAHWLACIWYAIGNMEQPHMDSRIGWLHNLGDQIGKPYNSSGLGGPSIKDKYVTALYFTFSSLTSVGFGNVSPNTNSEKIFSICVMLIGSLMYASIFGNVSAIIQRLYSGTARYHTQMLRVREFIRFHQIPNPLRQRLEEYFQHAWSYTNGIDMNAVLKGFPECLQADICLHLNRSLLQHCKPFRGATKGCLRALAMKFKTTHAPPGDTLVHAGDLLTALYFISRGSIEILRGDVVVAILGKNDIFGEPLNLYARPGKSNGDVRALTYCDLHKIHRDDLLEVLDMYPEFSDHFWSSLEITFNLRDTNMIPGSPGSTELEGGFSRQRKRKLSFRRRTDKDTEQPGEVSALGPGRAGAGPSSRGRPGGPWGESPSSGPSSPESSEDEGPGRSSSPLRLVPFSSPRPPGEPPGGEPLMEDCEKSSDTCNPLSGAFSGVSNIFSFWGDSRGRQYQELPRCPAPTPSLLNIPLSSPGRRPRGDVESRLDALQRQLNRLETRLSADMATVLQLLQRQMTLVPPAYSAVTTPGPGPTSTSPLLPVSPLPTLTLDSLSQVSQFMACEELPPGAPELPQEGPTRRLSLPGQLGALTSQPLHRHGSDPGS
reported property: IC50

Please provide the recorded IC50 for CCCC[C@H](OC(C)=O)c1ccccc1C(=O)O , tested on hERG potassium channel of CHO-hERG cells (Homo sapiens).
> 40 µM

----------
experiment: Pharmacokinetics of metabolites in rat plasma after intravenous injection of I1s; format: in vivo, SD male rats; conditions: male, Sprague-Dawley, rat, plasma, iv, 25 mg/kg, metabolite in rat plasma after I1s 25 mg/kg tail vein; rats 1-3; read-out: Cmax
reported property: Cmax (ng/mL)
Answers are plain numbers, in ng/mL.

{"compound": "CCCC[C@H](O)c1ccccc1C(=O)O [M3, (S)-2-(1-hydroxy-n-pentyl)benzoic acid]", "reported property": "Cmax", "number": 737}

Now look at this entry.
Quick check: Cmax of CCCC[C@H](OC(C)=O)c1ccccc1C(=O)O [(S)-APB, (S)-2-(1-acetoxy-n-pentyl)benzoic acid] ?
51400

----------
Tested on: arteriovenous bypass thrombosis in rats
Assay: Effect on arteriovenous bypass thrombosis in rats
Format: in vivo, SD rats
Conditions: Rattus norvegicus, 168 h, 10 mg/kg/day tail vein 7 days, vs model group, read-out: Inhibition rate (wet weight of thrombus)
Experimental: Male SD rats, weighing 250-280 g, purchased from Beijing Vital River Laboratory Animal Technology Co., Ltd., raised in an SPF breeding environment with indoor temperature controlled at 23±2° C., and allowed to freely eat and drink. The total number of the animals is 64. […] The rats were intraperitoneally injected with a 3% pentobarbital sodium solution (30 mg/kg). […] Then, after the suture was dried at room temperature for 24 h, the dry weight was determined. […]
reported property: inhibition at 10 mg/kg/day (%)
One number for each entry, in %.

Guide cases for inhibition at 10 mg/kg/day, answers given:
{"molecule smiles": "CCCC[C@@H](OC(C)=O)c1ccccc1C(=O)O", "scale unit": "%", "inhibition at 10 mg/kg/day": 18.4}
{"molecule smiles": "CC(=O)Oc1ccccc1C(=O)O", "scale unit": "%", "inhibition at 10 mg/kg/day": 40.7}
{"molecule smiles": "CC1=NN(c2ccccc2)C(=O)C1", "scale unit": "%", "inhibition at 10 mg/kg/day": 31.1}

Now look at this entry.
Quick check: inhibition at 10 mg/kg/day of CCCC[C@H](OC(C)=O)c1ccccc1C(=O)O ?
44.1

----------
test: Pharmacokinetics of metabolites in rat plasma after intravenous injection of I1s; format: in vivo, SD male rats; conditions: male, Sprague-Dawley, rat, plasma, iv, 25 mg/kg, metabolite in rat plasma after I1s 25 mg/kg tail vein; rats 1-3; read-out: AUC(0-t)
reported property: AUC(0-t) (ng·h/mL)
One number for each entry, in ng·h/mL.

{"compound": "CCCC[C@H](OC(C)=O)c1ccccc1C(=O)O [(S)-APB, (S)-2-(1-acetoxy-n-pentyl)benzoic acid]", "AUC(0-t) [ng·h/mL]": 31700}

Quick check: AUC(0-t) of CCCC[C@H](O)c1ccccc1C(=O)O [M3, (S)-2-(1-hydroxy-n-pentyl)benzoic acid] ?
518

----------
Kindly state AUC(0-inf) for each of the entries shown.
test: Pharmacokinetics of metabolites in rat plasma after intravenous injection of I1s; type: in vivo, SD male rats; conditions: male, Sprague-Dawley, rat, plasma, iv, 25 mg/kg, metabolite in rat plasma after I1s 25 mg/kg tail vein; rats 1-3
Hi, when you answer, please include the unit after the number. Thanks!

{"compound": "CCCC[C@H](O)c1ccccc1C(=O)O [M3, (S)-2-(1-hydroxy-n-pentyl)benzoic acid]", "AUC(0-inf)": "624 ng·h/mL"}

Now look at this entry.
Quick check: AUC(0-inf) of CCCC[C@H](OC(C)=O)c1ccccc1C(=O)O [(S)-APB, (S)-2-(1-acetoxy-n-pentyl)benzoic acid] ?
31800 ng·h/mL

----------
experiment: Concentration of metabolites in rat brain tissue after intravenous injection of I1s; type: in vivo; conditions: male, Sprague-Dawley, rat, brain, iv, 25 mg/kg, 6 h after intravenous injection of I1s
reported property: concentration at 6 h (ng/g)
Give bare numbers, in ng/g.

Quick check: concentration at 6 h of CCCC[C@H](O)c1ccccc1C(=O)O [M3, (S)-2-(1-hydroxy-n-pentyl)benzoic acid] ?
31.5

----------
experiment: Concentration of metabolites in rat brain tissue after intravenous injection of I1s; assay type: in vivo; conditions: male, Sprague-Dawley, rat, brain, iv, 25 mg/kg, 0.5 h after intravenous injection of I1s; read-out: Concentration in brain tissue (single rats)
reported property: concentration at 0.5 h (ng/g)
Numbers only, in ng/g.

Quick check: concentration at 0.5 h of CCCC[C@H](O)c1ccccc1C(=O)O [M3, (S)-2-(1-hydroxy-n-pentyl)benzoic acid] ?
76.8

----------
experiment: Acute toxicity test, tail vein injection in mice; settings: female, ICR, mouse, in vivo, iv, LD50 value, interval in parentheses, Bliss method
reported property: LD50 at 14 days

Quick check: LD50 at 14 days of CCCC[C@H](OC(C)=O)c1ccccc1C(=O)O ?
975 to 1290 mg/kg

----------
test: Solubility test (saturated solubility in water); assay type: physicochemical; details: 25 °C, thermodynamic from solid, 25±2° C., read-out: Saturated solubility in H2O, dissolved sample amount (single determinations)
reported property: solubility at 30 min (mg/mL)
Numbers only, in mg/mL.

Quick check: solubility at 30 min of CCCC[C@H](OC(C)=O)c1ccccc1C(=O)O ?
134

----------
assay: Concentration of metabolites in rat brain tissue after intravenous injection of I1s; format: in vivo; conditions: male, Sprague-Dawley, rat, brain, iv, 25 mg/kg, 1 h after intravenous injection of I1s; read-out: Concentration in brain tissue (single rats)
reported property: concentration at 1 h (ng/g)
One number for each entry, in ng/g.

Quick check: concentration at 1 h of CCCC[C@H](O)c1ccccc1C(=O)O [M3, (S)-2-(1-hydroxy-n-pentyl)benzoic acid] ?
35.5

----------
Kindly state pIC50 for each of the entries shown.
System: AA induced platelet aggregation
Assay: In vitro anti-platelet aggregation, AA induced (turbidimetry, PRP)
Assay type: cell-based, rabbits
Settings: Oryctolagus cuniculus, Platelet, read-out: IC50 AA (1 mM), rabbit PRP, inducer AA 1 mM, 37° C.
Method: The animals were used for experiments after 1 week. The common carotid artery was separated, and a polyethylene tube was inserted into the common carotid artery to collect blood. […] The upper beige suspension was pipetted to obtain the platelet-rich plasma (PRP). […] The PRP was adjusted with the PPP to make the platelet count at 1×10^8/mL. 260 μL of platelet-rich plasma (PRP) was added into a turbidimetric tube. […]
Give bare numbers, as −log10 of the molar value.

Please go through the list and note pIC50 for each compound.
1. CC(=O)Oc1ccccc1C(=O)O
2. CCCCC(OC(C)=O)c1ccccc1C(=O)O (racemic)
3. CCCC[C@@H](OC(C)=O)c1ccccc1C(=O)O [(R)-APB, (R)-2-(1-acetoxy-n-pentyl)benzoic acid]
4. CCCCC(OC(=O)CCC)c1ccccc1C(=O)O (racemic)

3.80
3.34
3.72
3.28

Please go through the list and note pIC50 for each compound.
1. CCCCC(OC(=O)CC)c1ccccc1C(=O)O (racemic)
2. N=C(N)NCCC[C@H](N)C(=O)O

[3.72, 2.29]
